- Read-out: Human Leukocyte Antigen - DR isotype (HLADR), HLA-DRA (gene 3122)
- test protocol: BSK_CASM3C_HLADR: BioMAP Diversity Plus: CASM3C Assay for Human Leukocyte Antigen - DR isotype (HLADR) Biomarker Activity (AID 2283043);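 note: cell-surface HLA-DR protein level quantified by ELISA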
- particulars: primary human coronary artery smooth muscle cells; actives raise or lower the signal
Calls of active or inactive are those of the source. Rule for the calls: active = hit-call score of the fitted dose curve at least 0.9, where 1 is the maximum; inactive = score below 0.9.
Hello, when you answer, please use one of the following outcomes: label 1 = active, label 0 = inactive

[
  {
    "compound": "O=C(NC(=O)c1cc(F)c(F)cc1Cl)Nc1cc(F)ccc1N1CCC(C(=O)O)CC1",
    "group label": "label 0"
  },
  {
    "compound": "CCC(C)(CC)c1cc(NC(=O)c2c(OC)cccc2OC)on1",
    "group label": "label 0"
  },
  {
    "compound": "CC(C)(O)C(=O)Nc1ccc([N+](=O)[O-])c(C(F)(F)F)c1",
    "group label": "label 0"
  },
  {
    "compound": "CCOCCOC(C)=O",
    "group label": "label 0"
  },
  {
    "compound": "C[C@]12CCC(=O)C=C1CC[C@@H]1[C@@H]2CC[C@]2(C)C(=O)CC[C@@H]12",
    "group label": "label 0"
  },
  {
    "compound": "Cc1ccccc1O",
    "group label": "label 0"
  },
  {
    "compound": "Cc1cc(-c2ccc(N)c(C)c2)ccc1N",
    "group label": "label 0"
  },
  {
    "compound": "Sc1ccccc1",
    "group label": "label 0"
  }
]

Check the results log: what was the call for ClC(Cl)=C(c1ccc(Cl)cc1)c1ccc(Cl)cc1 ?
label 1

Check the results log: what was the call for O=S(=O)(O)C(F)(F)C(F)(F)C(F)(F)C(F)(F)F ?
label 0

Check the results log: what was the call for CCC(=O)O[C@H]1CC[C@H]2[C@@H]3CCC4=CC(=O)CC[C@]4(C)[C@H]3CC[C@]12C ?
label 0

Check the results log: what was the call for Oc1ccc(Cl)cc1Cl ?
label 0

Check the results log: what was the call for Cc1ccc(O)c(C)c1 ?
label 1

Check the results log: what was the call for CCCCCCCCOC(=O)c1ccccc1C(=O)OCCCCCCCC ?
label 0

====

- target entity: human CYP19A1, CYP19A1 (gene 1588)
- test protocol: NVS_ADME_hCYP19A1: NovaScreen (NVS) CYP450-related Enzyme Activity (ADME) Assay for human CYP19A1 (AID 2283098);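 for AC50: potency for inhibitors seen as loss of fluorescent enzyme signal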
Results filed as inconclusive are left out. Activity calls are given as the source filed them. The calls were made as follows: active = hit-call score of the fitted dose curve at least 0.9, where 1 is the maximum; inconclusive = response in the unintended direction; inactive = score below 0.9.
assay readout: AC50

Before answering, review these 4 worked examples.
[
  {
    "compound": "ClC1=C(Cl)[C@]2(Cl)[C@@H]3[C@@H](Cl)[C@H]4O[C@H]4[C@@H]3C1(Cl)C2(Cl)Cl",
    "result": "inactive"
  },
  {
    "compound": "CC(C)C(=O)OCC(C)(C)C(OC(=O)C(C)C)C(C)C (stereo not given)",
    "result": "11.6 µM (active)"
  },
  {
    "compound": "Cc1cc(-c2ccc(N)c(C)c2)ccc1N",
    "result": "inactive"
  },
  {
    "compound": "CCCN(CCC)N=O",
    "result": "inactive"
  }
]

What does the record list as AC50 for Oc1ccc(C(c2ccc(O)cc2)(C(F)(F)F)C(F)(F)F)cc1 ?
7.19 µM (active)

====

- Read-out: Epidermal growth factor receptor (EGFR), EGFR (gene 1956)
- test protocol: BSK_BE3C_EGFR: BioMAP Diversity Plus: BE3C Assay for Epidermal growth factor receptor (EGFR) Biomarker Activity (AID 2284281)
- particulars: primary human bronchial epithelial cells
Calls of active or inactive are those of the source. How the source made its calls: active means hit-call score of the fitted dose curve at least 0.9, where 1 is the maximum; inactive means score below 0.9.
assay readout: outcome

[
  {
    "line notation": "COc1ccc(O)c(C(C)(C)C)c1",
    "assay readout": "outcome",
    "result": "inactive"
  },
  {
    "line notation": "O=S(=O)(O)C(F)(F)C(F)(F)C(F)(F)C(F)(F)C(F)(F)C(F)(F)F",
    "assay readout": "outcome",
    "result": "inactive"
  },
  {
    "line notation": "O=C(O)C(F)(F)C(F)(F)C(F)(F)C(F)(F)C(F)(F)C(F)(F)C(F)(F)C(F)(F)F",
    "assay readout": "outcome",
    "result": "inactive"
  },
  {
    "line notation": "O=C(O)C(F)(F)C(F)(F)C(F)(F)C(F)(F)C(F)(F)F",
    "assay readout": "outcome",
    "result": "inactive"
  }
]

====

- test protocol: APR_HepG2_CellCycleArrest_72hr: Apredica 72-hour HepG2 Assay for Cell Cycle Arrest (AID 2282914)
- particulars: high-content imaging, actives raise or lower the signal
Calls of active or inactive are those of the source. The calls were made as follows: active = hit-call score of the fitted dose curve at least 0.9, where 1 is the maximum; inactive = score below 0.9.
Hello, when you answer, please use one of the following outcomes: active, inactive

[
  {
    "compound": "ClC1=C(Cl)[C@]2(Cl)[C@@H]3[C@H]4C[C@H]([C@@H]5O[C@H]45)[C@@H]3[C@@]1(Cl)C2(Cl)Cl",
    "group label": "inactive"
  }
]

Check the results log: what was the call for ClC1=C(Cl)[C@]2(Cl)[C@@H]3[C@@H]4C[C@@H]([C@H]5O[C@@H]45)[C@@H]3[C@@]1(Cl)C2(Cl)Cl ?
active

Check the results log: what was the call for N#Cc1ccc(N(CC(N)=O)CC(F)(F)F)cc1C(F)(F)F ?
inactive

====

- test protocol: CCTE_Deisenroth_AIME_384WELL_CTox_Active: Cytotoxicity Assessment (CTOX) in CCTE's 384-well Estrogen Receptor Transactivation Assay with AIME metabolic competence (metabolism positive), Deisenroth Lab (AID 2284037);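 note: chemicals first conditioned 2 h by alginate-bound induced rat liver S9 before cells; activity means signal loss indicating cell death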
Results filed as inconclusive are left out. The source made the active and inactive calls. The calls were made as follows: active = hit-call score of the fitted dose curve at least 0.9, where 1 is the maximum; inconclusive = response in the unintended direction; inactive = score below 0.9.
Hello, when you answer, please use one of the following outcomes: true = active, false = inactive

Some solved entries appear below for comparison.
[
  {
    "line notation": "Cc1ccccc1CO[C@@H]1C[C@@]2(C(C)C)CC[C@]1(C)O2",
    "group label": "false"
  },
  {
    "line notation": "Nc1ccc(-c2ccc(N)cc2)cc1",
    "group label": "false"
  },
  {
    "line notation": "Cc1cc(-c2ccc(N)c(C)c2)ccc1N",
    "group label": "false"
  },
  {
    "line notation": "c1ccc(-c2ccccc2)cc1",
    "group label": "false"
  }
]

Check the results log: what was the call for O=S(=O)(O)C(F)(F)C(F)(F)C(F)(F)C(F)(F)C(F)(F)C(F)(F)F ?
false

Check the results log: what was the call for CCOCCOC(C)=O ?
false

====

- Read-out: succinate dehydrogenase complex iron sulfur subunit B (SDHB), SDHB (gene 6390)
- test protocol: LTEA_HepaRG_SDHB: Life Technologies and Expression Analysis (LTEA) Assay for succinate dehydrogenase complex iron sulfur subunit B (SDHB) using HepaRG (AID 2283528)
- particulars: mRNA level, 48 h; actives raise or lower the signal
Activity calls are given as the source filed them. The calls were made as follows: active = hit-call score of the fitted dose curve at least 0.9, where 1 is the maximum; inactive = score below 0.9.
Hello, when you answer, please use one of the following outcomes: Yes for active, No for inactive

[
  {
    "compound": "c1cc2ccc3cccc4ccc(c1)c2c34",
    "group label": "No"
  },
  {
    "compound": "O=C(O)C(F)(F)C(F)(F)C(F)(F)C(F)(F)C(F)(F)C(F)(F)C(F)(F)C(F)(F)C(F)(F)F",
    "group label": "Yes"
  },
  {
    "compound": "CCC(C)(c1ccc(O)cc1)c1ccc(O)cc1",
    "group label": "No"
  }
]

// next entry
Check the results log: what was the call for ClC1=C(Cl)[C@]2(Cl)[C@@H]3[C@@H]4C[C@@H]([C@H]5O[C@@H]45)[C@@H]3[C@@]1(Cl)C2(Cl)Cl ?
No

====

- Read-out: Interleukin-8 (IL8), CXCL8 (gene 3576)
- test protocol: BSK_MyoF_IL8: BioMAP Diversity Plus: MyoF Assay for Interleukin-8 (IL8) Biomarker Activity (AID 2284261)
- particulars: primary human lung fibroblasts
Calls of active or inactive are those of the source. Rule for the calls: active = hit-call score of the fitted dose curve at least 0.9, where 1 is the maximum; inactive = score below 0.9.

[
  {
    "line notation": "O=S(=O)(O)C(F)(F)C(F)(F)C(F)(F)C(F)(F)C(F)(F)C(F)(F)F",
    "AC50": "inactive"
  },
  {
    "line notation": "Oc1c(Cl)c(Cl)c(Cl)c(Cl)c1Cl",
    "AC50": "595 nM (active)"
  },
  {
    "line notation": "Sc1ccccc1",
    "AC50": "inactive"
  },
  {
    "line notation": "O=S(=O)(O)C(F)(F)C(F)(F)C(F)(F)C(F)(F)F",
    "AC50": "inactive"
  }
]

====

- test protocol: BSK_4H_SRB: Viability Assessment in the BioMAP Diversity Plus: 4H Assay (AID 2283027);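 note: cells exposed to compound for 24 h before staining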
- particulars: primary human endothelial cells (HUVEC)
Active and inactive are the calls of the source. How the source made its calls: active means hit-call score of the fitted dose curve at least 0.9, where 1 is the maximum; inactive means score below 0.9.
Hello, when you answer, please use one of the following outcomes: active, inactive

Some solved entries appear below for comparison.
[
  {
    "compound": "CCC(C)(CC)c1cc(NC(=O)c2c(OC)cccc2OC)on1",
    "group label": "inactive"
  },
  {
    "compound": "O=C(NC(=O)c1cc(F)c(F)cc1Cl)Nc1cc(F)ccc1N1CCC(C(=O)O)CC1",
    "group label": "inactive"
  },
  {
    "compound": "Cc1ccccc1O",
    "group label": "inactive"
  }
]

// next entry
Check the results log: what was the call for CCC(C)c1cc([N+](=O)[O-])cc([N+](=O)[O-])c1O (configuration not stated) ?
active
